System: OVCAR-5
Assay: NCI tumour cell line growth inhibition, 48 h
Activity calls are given as the source filed them. Cut-off read from the data, not from the text of the source: active = GI50 up to about 1.1 µM and inactive = higher.
Recorded GI50 values for a group of compounds are listed next.

| compound | GI50 |
| --- | --- |
| COc1ccc(C(=O)/C=C/c2ccc(OCCCCCCCCCCOc3ccc(/C=C/C(=O)c4ccc(OC)cc4)cc3)cc2)cc1 | > 100 µM (inactive) |
| Cc1cc2c([N+](=O)[O-])cc3c(c2o1)C(=O)C=CC3=O | 20 µM (inactive) |
| Nc1nncc2c1c(Br)cn2C1OC(CO)C(O)C1O (stereo not drawn) | > 62.2 µM (inactive) |
| C=CCNC(=S)N1CC(C)C(=O)Nc2ccccc21 (stereo not drawn) | > 100 µM (inactive) |
| COc1ccc(C(c2ccccc2C(=O)O)c2ccc(OC)c3ccccc23)c2ccccc12 | 15.1 µM (inactive) |
| CN(C)C1C(CO)OC(n2cnc3c(N)ncnc32)C1O (stereo not drawn) | > 100 µM (inactive) |
| O=C1/C(=C/c2ccc(O)cc2)CCc2ccccc21 | 35.7 µM (inactive) |
| CC(C)OC(=O)c1ccc(CCC2=CC(=O)C(Br)=CC2=O)cc1 | 22.1 µM (inactive) |
| COc1ccc(C(=O)/C=C/c2ccc(O)c(O)c2)c(OC)c1 | 15.6 µM (inactive) |
| Clc1ccc(C2C3COc4ccccc4C3=NN2c2ccccc2)cc1 (stereo not drawn) | > 100 µM (inactive) |
| O=C1CCCCC/C1=C\c1ccc([N+](=O)[O-])cc1 | 31.4 µM (inactive) |
| O=C1c2ccccc2-c2nnc3c(c21)-c1ccccc1C3 | > 100 µM (inactive) |
| C/C(=N/NC(=S)N1CC2CCC(CC2)C1)c1cnccn1 | 0.255 µM (active) |
| CC(=O)O[C@H]1C(=O)[C@@]2(C)[C@H]([C@H](OC(=O)c3ccccc3)[C@@]3(O)C[C@H](O)C(C)=C1C3(C)C)[C@]1(OC(C)=O)CO[C@@H]1C[C@@H]2O | 63.5 µM (inactive) |
| Cc1cc(-c2nc3cc(O)ccc3s2)ccc1N | 24.7 µM (inactive) |
| COc1cccc(CCNC(=O)Cc2ccccc2CCO)c1 | > 100 µM (inactive) |
| S=C1NCCN1C(=S)NC1CCCCC1 | > 100 µM (inactive) |
| O=C(CCNC(=O)OCc1ccccc1)OCCCNC(=O)OCc1ccccc1 | > 100 µM (inactive) |
| CC(=O)c1ccc2c3c1O[C@H]1c4[nH]c5ccccc5c4C[C@@]4(O)[C@@H](C2)N(CC2CC2)CC[C@]314 | 13.2 µM (inactive) |
| NC(=O)c1csc(C2C=CC(CO)O2)n1 (stereo not drawn) | > 100 µM (inactive) |
| O/N=C\c1cc(O)c(O)c(/C=N/O)c1 | 96.2 µM (inactive) |
| NC1=CC(C(=O)c2ccncc2)c2nc3ccccc3nc21 (stereo not drawn) | > 100 µM (inactive) |
| C[n+]1ccc(Nc2ccc(NC(=O)c3ccc(Nc4cc[n+](C)c5ccc([N+](=O)[O-])cc45)cc3[N+](=O)[O-])cc2)cc1 | > 100 µM (inactive) |
| N#CC(C(=O)C(=O)C(C#N)c1ccc(Br)cc1)c1ccc(Br)cc1 (stereo not drawn) | 18.2 µM (inactive) |
| COC(=O)c1cc(CC2Cc3cc4c(cc3C2=O)CCC4)cc2c1CCC2 (stereo not drawn) | > 100 µM (inactive) |
| CCOP(=O)(OCC)/C(C#N)=C/c1[nH]cnc1C | > 100 µM (inactive) |
| COc1cc2c(/C=C3/C(=O)Nc4ccccc43)c(Cl)n(Cc3ccc(Cl)cc3)c2cc1C | 0.656 µM (active) |
| CCCCCCCCCCCCSC(=S)c1c(C)[nH]n(CCCCCCCCCCCC)c1=O | > 100 µM (inactive) |
| CC(C)(C)N/N=C(\C(=O)NC1=C(Cl)C(=O)c2ccccc2C1=O)C1C=CCS1(=O)=O (stereo not drawn) | 21.2 µM (inactive) |
| N#CCc1ccc(C(C#N)/C(CCCC(=O)Nc2cccc([N+](=O)[O-])c2)=N\NC(=O)NN)cc1 (stereo not drawn) | > 100 µM (inactive) |
| Cc1nc2c(o1)C(=O)c1ccccc1/C2=N/C1CCCCC1N (stereo not drawn) | 1.75 µM (inactive) |
| CC1(C)OC(=O)CC12CCN(Cc1ccccc1)CC2 | > 100 µM (inactive) |
| O=c1ccc2ccc(CBr)cc2o1 | 1.73 µM (inactive) |
| C=C1CC(Cn2cc(Br)c(=O)[nH]c2=O)(c2ccc(Br)cc2)OC1=O (stereo not drawn) | 6.38 µM (inactive) |
| O=[N+]([O-])c1ccc2oc(=N/c3ccccc3)/c(=N\c3ccccc3)[nH]c2c1 | > 100 µM (inactive) |
| Nc1nc(=O)n(C2CC(O)C(CO)O2)c2nc(-c3ccc(-c4ccccc4)cc3)cnc12 (stereo not drawn) | > 100 µM (inactive) |
| COc1cccc(CC(C)NCC(O)c2ccc(O)c(O)c2)c1 (stereo not drawn) | 17.3 µM (inactive) |
| COc1cc2c(cc1O)NC(=O)[C@@H]1CCCN1C2=O | > 100 µM (inactive) |
| c1ccc2c[n+](Cc3ccnc4ccccc34)ccc2c1 | > 100 µM (inactive) |
| CC(C)(C)OC(=O)C1=C(N)N(Cc2ccccc2)C2(C)C=CC(=O)C=C12 (stereo not drawn) | 18.1 µM (inactive) |
| CSC(C1c2ccccc2N(c2ccc(C)cc2)C2=NC(=O)N(C)C(=O)C21Cl)S(=O)(=O)c1ccc(C)cc1 (stereo not drawn) | 35.3 µM (inactive) |
| Nc1nc2c(c(=O)[n-]1)[n+](CCO)cn2C1OC(CO)C(O)C1O (stereo not drawn) | > 100 µM (inactive) |
| CCOC(=O)c1[nH]c2cc(OC)c(OC)cc2c1CN(C)C | > 100 µM (inactive) |

* * *

System: NCI-H226
Test: NCI tumour cell line growth inhibition, 48 h
Calls of active or inactive are those of the source. No stated cut-off is given here; in the data, active = GI50 up to about 1.1 µM and inactive = higher.
Recorded GI50 values for a group of compounds are listed next.
reportedProperty: GI50

| compound | reportedProperty | recordedValue |
| --- | --- | --- |
| CC(=O)c1ccc(NC(=O)C(=O)Nn2c(S)nc3ccccc3c2=O)cc1 | GI50 | > 100 µM (inactive) |
| CN(Cc1cccc2ccsc12)/N=C\c1ccc(Cl)cc1 | GI50 | 89.9 µM (inactive) |
| O=C(CC1(O)C(=O)Nc2c(Cl)ccc(Cl)c21)c1ccc(Cl)cc1 (stereo not given) | GI50 | 38.5 µM (inactive) |
| CC(=O)C(CN1CCCCC1)C(c1ccccc1)c1c(O)c2ccccc2oc1=O (stereo not given) | GI50 | > 100 µM (inactive) |
| O=C(Nc1cccc(C(F)(F)F)c1)c1cc(Br)cc(Br)c1O | GI50 | 3.51 µM (inactive) |
| COc1ccc(Cn2c3c(cc(OC(C)=O)c2=O)Cc2ccccc2-3)cc1 | GI50 | 14.3 µM (inactive) |
| CC(=O)OCC1OC(N2C(c3ccccc3)=CC(c3ccccc3)C(C#N)=C2S)C(OC(C)=O)C(OC(C)=O)C1OC(C)=O (stereo not given) | GI50 | 12.7 µM (inactive) |
| O=[N+]([O-])C(=C/c1cccs1)/C(=C\c1cccs1)[N+](=O)[O-] | GI50 | 2.77 µM (inactive) |
| O=C1/C(=C\Oc2ccc(F)cc2)N2CCC1CC2 | GI50 | 35.5 µM (inactive) |
| CCOC(=O)C1(C#N)C(=O)c2cc[n+](CC[n+]3ccc4c(c3)C(=O)C(C#N)(C(=O)OCC)C4=O)cc2C1=O (stereo not given) | GI50 | > 100 µM (inactive) |

* * *

System: ACHN
Assay: NCI tumour cell line growth inhibition, 48 h
Active and inactive are the calls of the source. Rule as the data show it: active = GI50 up to about 1.1 µM and inactive = higher.

| compound | GI50 |
| --- | --- |
| O=c1[nH]nc(-c2ccccc2)n1/N=C/c1ccccc1O | 63.2 µM (inactive) |
| CCCCCCC(=O)OC[n+]1cccc(-c2c(COC(=O)NC(C)C)c(COC(=O)NC(C)C)c3n2CCC3)c1 | 21.4 µM (inactive) |
| CC(=O)O[C@H]1C(=O)[C@@]2(C)[C@H]([C@H](OC(=O)c3ccccc3)[C@@]3(O)C[C@H](O)C(C)=C1C3(C)C)[C@]1(OC(C)=O)CO[C@@H]1C[C@@H]2O | > 100 µM (inactive) |
| N=C(N)NS(=O)(=O)c1ccc(NC(=O)c2c3ccccc3nc3ccccc23)cc1 | > 100 µM (inactive) |
| Clc1ccc(C2C3COc4ccccc4C3=NN2c2ccccc2)cc1 (centres undefined) | > 100 µM (inactive) |
| O=S(=O)(N/N=C/c1ccc(Cl)cc1Cl)c1ccccc1 | > 100 µM (inactive) |
| CCO/C=N\c1c(C#N)c(-c2ccc(Cl)cc2)cn1-c1ccc(C)cc1 | > 100 µM (inactive) |
| O=c1cc(NNc2ccccc2)[nH]c(=S)[nH]1 | 43.7 µM (inactive) |
| CN(C)CCC(/C=C/c1ccccc1)=N\Nc1ccc(Cl)c(Cl)c1 | 1.92 µM (inactive) |
